assay: Iodine content; format: physicochemical
We begin with a simple list: items and their reported % Iodine.

Some entries whose results are on file:
Molecule: COCC(=O)Nc1c(I)c(C(=O)NCC(=O)Nc2c(I)c(C(=O)NCC(O)CO)c(I)c(C(=O)NCC(O)CO)c2I)c(I)c(C(=O)NC(CO)C(O)CO)c1I (stereo not drawn)
% Iodine: 51,5%
--
Molecule: CN(CC(O)CO)C(=O)c1c(I)c(NC(=O)CNC(=O)c2c(I)c(NC(=O)CO)c(I)c(C(=O)NCC(O)CO)c2I)c(I)c(C(=O)N(C)CC(O)CO)c1I (stereo not drawn)
% Iodine: 52%

For COCC(=O)Nc1c(I)c(C(=O)NCC(=O)Nc2c(I)c(C(=O)N(C)CC(O)CO)c(I)c(C(=O)N(C)CC(O)CO)c2I)c(I)c(C(=O)NCC(O)CO)c1I (stereo not drawn) , what is its reported % Iodine?
51,6%

Lookup CC(=O)Nc1c(I)c(C(=O)NCC(O)CO)c(I)c(C(=O)N(C)CC(=O)N(C)c2c(I)c(C(=O)NCC(O)CO)c(I)c(C(=O)NCC(O)CO)c2I)c1I (stereo not drawn)
52,6%

Repeat with COCC(=O)Nc1c(I)c(C(=O)NCC(O)CO)c(I)c(C(=O)N(C)CC(=O)Nc2c(I)c(C(=O)NC(CO)C(O)CO)c(I)c(C(=O)NC(CO)C(O)CO)c2I)c1I (stereo not drawn)
50%
